- Tested on: SK-OV-3 ovarian
- experiment: NCI-60 one-dose screen, 48 h (100 = growth as untreated, 0 = no growth, -100 = all killed)
- measurement.setup: 10 µM unless noted
- Procedure: Growth inhibition of the SK-OV-3 human tumor cell line is measured as a screen for anti-cancer activity. Cells are grown in 96 well plates and exposed to the test compound for 48 hours. Compounds are tested at a single concentration, which is 10^-5 M for most compounds. The reported endpoint is percent growth (GI% or GIPRCNT), where numbers from 0 - 100% represent growth inhibition, and numbers from -100% - 0 represent cell death. For example, a value of 40 represents 60% growth inhibition. […]
About 83,000 compounds went through this panel and 20% of them were active in at least one assay; those are over-represented in the sample as a whole. Active and inactive are the calls of the source. Rule for the calls: active = growth percent below 10; inactive = the rest.
endpoint.name: growth

{"columns": ["compound", "value.reported"],
 "data": [
  ["N=C(N)N=Nc1ccc(O)cc1", "106% [100 µM] (inactive)"],
  ["N#CC1=C(N)Oc2c(c(N)nn2-c2ccccc2)C1c1ccc(Cl)cc1 (stereo not given)", "81.7% (inactive)"],
  ["N#CCCCCCn1c2ccccc2c2c3[nH]c(=O)[nH]c(=O)c3c3c4ccccc4n(CCCCCC#N)c3c21", "72.7% (inactive)"],
  ["Nc1c(Cl)cc(N=Nc2ccccc2)cc1Cl", "99% (inactive)"],
  ["COc1cc(NC(C)CN(CC(C)C)C(C)C)c2ncccc2c1 (stereo not given)", "101% (inactive)"],
  ["COC(=O)[C@]12CC[C@@H](C(/C=C/c3cccnc3)=N/O)[C@@H]1[C@H]1CC[C@@H]3[C@@]4(C)CC(=C/c5cccnc5)/C(=N/O)C(C)(C)[C@@H]4CC[C@@]3(C)[C@]1(C)CC2", "64.7% (inactive)"],
  ["CN1CCN(c2nc(-c3csc(-c4cccs4)n3)cc3ccccc23)CC1", "90.8% (inactive)"],
  ["Cn1c(=O)c2c(ncn2CCC(=O)Nc2ccc(F)cc2)n(C)c1=O", "85% (inactive)"],
  ["CCCC(=O)N1CCCCC1CC (stereo not given)", "111% (inactive)"],
  ["COc1ccc(CCN2C(=O)C(C)(C)SC2=S)cc1OC", "108% (inactive)"]
]}
